# Test system: HT29 colon
# Experiment Description: NCI tumour cell line growth inhibition, 48 h
# Lookup of reported TGI keyed by entry

In [3]: df
Out[3]:
                                   molecule  observed_measurement
0  CCCCCCCCCCCCOC1C(CNC(=O)C2OC3OC(C)(C)OC3C2NC(=O)CN2CCN(c3ccccn3)CC2)OC2OC(C)(C)OC21 (stereo unspecified)               3.34 µM
1       CC/C(Cl)=N\OC(=O)Nc1ccccc1OC(F)(F)F               44.4 µM
2  CCN(CC)CCCC(C)NC(=O)c1cc(-c2nccn2C)nc2ccc(C)cc12 (stereo unspecified)              > 100 µM

Lab book: TGI of `O=C1Nc2ccccc2C1(c1ccc(O)c(F)c1)c1ccc(O)c(F)c1` noted as 48.5 µM

Lab book: TGI of `O=C(N/N=C/c1coc2ccc(Cl)cc2c1=O)c1ccncc1` noted as > 100 µM

Lab book: TGI of `CCCCCCc1cc2cc(C(=O)Nc3ccccc3F)c(=N)oc2cc1O` noted as 62.9 µM

Lab book: TGI of CC(N)C(=O)c1ccc(O)cc1 (stereo unspecified) noted as > 100 µM

Lab book: TGI of `Cc1nc2c(=O)[nH]c3ccccc3c2o1` noted as > 100 µM
